Where these numbers come from: patent US6737383B1

Test system: crabgrass
Experiment: Test B pre/postemergence crabgrass
Type: in vivo, Digitaria sanguinalis
Conditions: Rate 125 g/ha; Preemergence; scale of 0 to 10 where 0 is no effect and 10 is complete control
Catalogue of Crabgrass plant response rating readings, one per entry.
Enter a number only.

Returns the measured Crabgrass plant response rating for the input compound. Input: CC(C)N(C(=O)n1oc(=O)n(C[Si](C)(C)C)c1=O)c1ccc(F)cc1 [Compound 294]
9

Same for CON=C(Cn1c(=O)on(C(=O)N(c2ccc(F)cc2)C(C)C)c1=O)C(F)(F)F [Compound 227]
10

What do you have for CC(C)N(C(=O)n1oc(=O)n(C2CC2)c1=O)c1ccc(F)cc1 [Compound 242] ?
10

Also CCOC(=O)C=CCn1c(=O)on(C(=O)N(c2ccc(F)cc2)C(C)C)c1=O [Compound 214] , if possible.
0

Try this compound too: COC(=O)CCCn1c(=O)on(C(=O)N(c2ccc(F)cc2)C(C)C)c1=O [Compound 266]
1

Check CC(C)N(C(=O)n1oc(=O)n(-c2cccnc2)c1=O)c1ccc(F)cc1 [Compound 234] too.
0

Try this compound next: C=CCn1c(=O)on(C(=O)N(c2ccc(F)cc2)C2CCCCCC2)c1=O [Compound 249]
0
